Test system: NCI-H460 lung
// one of active, inactive, no free text

Worked cases, answers included:
>>> print(df.to_string())
                                   molecule            tgt  discrete_label
0  CN1CCC2(CC1)NC(=O)c1c(c3ccc(Cl)c(Cl)c3n1C)C2C#N (centres undefined)  NCI-H460 lung        inactive
1  O=[N+]([O-])c1ccc(C2CC(c3ccccc3)=Nc3ccccc3S2)cc1 (centres undefined)  NCI-H460 lung        inactive
2  O=C(Nc1ccc(-n2cc(-c3ccncc3)c(-c3ccc(O)c(Cl)c3)n2)cc1)Nc1ccc(Cl)c(C(F)(F)F)c1  NCI-H460 lung        inactive
3      COc1ccc2c(c1)[nH]c(=O)c1c3ccccc3cn21  NCI-H460 lung          active
4  C[C@@H](NC(=O)/C(C#N)=C/c1ccc([N+](=O)[O-])cc1)c1ccccc1  NCI-H460 lung        inactive

Challenge: Please let me know the test result on file for Cc1cc(Nc2ncc3c(n2)N(C)C(=O)N(c2cc(NC(=O)c4cccc(C(F)(F)F)c4)ccc2C)C3)n(C)n1 .
Response given: active
